system: CCRIS mutagenicity, Ames/micronucleus/aberration tests; assay: CCRIS mutagenicity studies; settings: Test System: AMES SALMONELLA TYPHIMURIUM; Strain/Indicator: TA1537; Metabolic Activation: MOUSE, LIVER, S-9; Method: STANDARD PLATE
Calls of active or inactive are those of the source. The rule behind the calls is not given here.
Response enum: TRUE (active), FALSE (inactive)

stdin: Write down the call the test reported for this molecule. Item: C#C[C@]1(O)CC[C@H]2[C@@H]3CCc4cc(O)ccc4[C@H]3CC[C@@]21C
stdout: FALSE

stdin: Write down the call the test reported for this molecule. Item: Nc1ccc2cc3ccc(N)cc3nc2c1
stdout: TRUE

stdin: Write down the call the test reported for this molecule. Item: C#C[C@]1(OC(C)=O)CC[C@H]2[C@@H]3CCC4=CC(=O)CC[C@@H]4[C@H]3CC[C@@]21C
stdout: FALSE

stdin: Write down the call the test reported for this molecule. Item: CC(=O)c1ccc(S(=O)(=O)NC(=O)NC2CCCCC2)cc1
stdout: FALSE

stdin: Write down the call the test reported for this molecule. Item: COc1cc(-c2ccc(N=C=O)c(OC)c2)ccc1N=C=O
stdout: FALSE
